# koff listing for each entry below
# Target Under Test: T1, human ST2L extracellular domain with C-terminal His6 tag (human, UniProt Q01638 19-328)
# T1 construct: also called huST2L-ECD; ST2L-ECD
# T1 sequence: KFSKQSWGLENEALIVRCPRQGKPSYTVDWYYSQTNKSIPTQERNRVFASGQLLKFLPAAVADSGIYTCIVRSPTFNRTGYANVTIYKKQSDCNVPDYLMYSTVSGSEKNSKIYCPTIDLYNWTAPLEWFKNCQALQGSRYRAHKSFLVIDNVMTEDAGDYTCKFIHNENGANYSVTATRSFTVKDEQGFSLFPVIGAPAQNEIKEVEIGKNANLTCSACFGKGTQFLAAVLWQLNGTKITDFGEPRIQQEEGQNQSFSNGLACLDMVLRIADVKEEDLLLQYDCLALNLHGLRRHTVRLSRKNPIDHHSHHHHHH
# Protocol: SPR, mAb captured, ST2L-ECD in solution

{"columns": ["Binder", "Assay Endpoint", "Data Value"],
 "data": [
  ["STLM216 (antibody, V domains shown, frameworks VH3-23 / Vk-L6) VH: EVQLLESGGGLVQPGGSLRLSCAASGFTFSSYDMFWVRQAPGKGLEWVSDIKGEGGATNYADSVKGRFTISRDNSKNTLYLQMNSLRAEDTAVYYCARDPWSTEGSFFVLDYWGQGTLVTVSS VL: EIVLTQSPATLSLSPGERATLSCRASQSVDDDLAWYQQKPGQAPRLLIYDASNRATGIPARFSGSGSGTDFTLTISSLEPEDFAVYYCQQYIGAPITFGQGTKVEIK", "koff", "0.000158 s⁻¹"]
]}

// koff value for STLM124 (antibody, V domains shown, frameworks VH3-23 / Vk-L6) VH: EVQLLESGGGLVQPGGSLRLSCAASGFTFSIYDMIWVRQAPGKGLEWVSTIKGEGGGTYYADSVKGRFTISRDNSKNTLYLQMNSLRAEDTAVYYCARDPWSTEGSFFVLDYWGQGTLVTVSS VL: EIVLTQSPATLSLSPGERATLSCRASQSVDDDLAWYQQKPGQAPRLLIYDASNRATGIPARFSGSGSGTDFTLTISSLEPEDFAVYYCQQYITAPLTFGQGTKVEIK : 0.000756 s⁻¹

// koff value for STLM215 (antibody, V domains shown, frameworks VH3-23 / Vk-L6) VH: EVQLLESGGGLVQPGGSLRLSCAASGFTFSSYDMFWVRQAPGKGLEWVSAIAGEGGRTYYADSVKGRFTISRDNSKNTLYLQMNSLRAEDTAVYYCARDPWSTEGSFFVLDYWGQGTLVTVSS VL: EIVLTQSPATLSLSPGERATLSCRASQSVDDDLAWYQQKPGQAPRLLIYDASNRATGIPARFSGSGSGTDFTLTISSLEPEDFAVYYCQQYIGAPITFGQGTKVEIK : 0.000172 s⁻¹
